Assignment: determine reported growth inhibition for the given compounds.
experiment: NCI Yeast Anticancer Drug Screen. Data for the mlh1 rad18 strain (AID 175); settings: S. cerevisiae mlh1 rad18 strain growth inhibition; at 50.0 µM; hits give high values
About 79,000 compounds went through this panel and 15% of them were active in at least one assay; those are over-represented in the sample as a whole.
Use % as the unit, but write only the number.

Entry "Oc1nc(-c2ccccc2)sc1-c1ccccc1" ; growth inhibition = -9.15

Notebook: "OCCSC(SCCO)=C(SCCO)SCCO" , growth inhibition read as 2.75

growth inhibition for "CC(C)(C)c1ccc(C(C)(C)C)c(=O)[nH]1" is 5.65

Per the record, "C/C(CC1CCCCC1)=N\NC(N)=O" has growth inhibition of -27.1

Record summary for C=CC(C)n1cnc2c1c(=O)n(C)c(=O)n2C (stereo not given) : reported growth inhibition = 2.8

Memo: O=c1onc2n1-c1cc(Cl)ccc1C(=S)N1CSCC21 (stereo not given) , reported growth inhibition: 11.6

Sure, the documented growth inhibition for O=C1c2ccccc2C(=O)N1N1C(=O)C2C3CCC(O3)C2C1=O (stereo not given) is 9.3

"CCOC(Cn1ncc(C#N)c1N)OCC" yielded growth inhibition of 5.65

growth inhibition measured on "O=C(NCc1cccnc1)Nc1cccc2c(NC(=O)NCc3cccnc3)cccc12" = 13.9

For this compound ( "C[C@]12CC[C@@H]3c4ccc(OS(C)(=O)=O)cc4CC[C@H]3[C@@H]1CC[C@@H]2OS(C)(=O)=O" ), measured growth inhibition is 9.9

====

Assay: NCI Yeast Anticancer Drug Screen. Data for the mlh1 rad18 strain (AID 175)
Details: S. cerevisiae mlh1 rad18 strain growth inhibition; at 50.0 µM; hits give high values
Experimental: Growth inhibition of yeast strains with defined genetic alterations is measured as a screen for potential anti-cancer activity. Selected strains with alterations in DNA damage repair or cell cycle control were exposed to compounds and growth inhibition was measured relative to vehicle treated controls. The strain used in this assay is mlh1 rad18
About 79,000 compounds went through this panel and 15% of them were active in at least one assay; those are over-represented in the sample as a whole.
I'd appreciate it if you could supply growth inhibition values for the items below.
Dear colleague, please return just the value in %, with no unit written.

Record "COC(=O)C(=O)c1c(C(=O)OC)nc2nnc(N)n2c1-c1ccc(OC)cc1" . Reported growth inhibition: -14.9

// growth inhibition lookup, compound = "O=C(OCC(COC(=O)c1ccccc1)OC(=O)c1ccccc1)c1ccccc1" , result: 0.65

"O=c1[nH]c2cc([N+](=O)[O-])ccc2nc1/C=C(\O)c1ccc(Cl)cc1" yielded growth inhibition of -36.7

According to the records, this compound "CCCCNC(=S)N/N=C/c1ccc(OC)cc1" displays growth inhibition of -6.45

According to the records, this compound C=CCCCCCCCC(O)C1C[C@H](O)C(CCCCC)O1 (some centres undefined) displays growth inhibition of -5

Item: "C=C(C)COCc1ccc(C(C)(C)CC(C)(C)C)cc1" | growth inhibition: 1.55

So for "CC(C)=NOCCC#N" , the logged growth inhibition turned out to be -14.3

// recorded growth inhibition for "CC(C)(C)N=c1n(C(C)(C)C)oc(=O)n1C(C)(C)C" : -11.9

Entry CN1C(=O)CC2C(=O)N(Cc3ccccc3)C(=O)C2C1=O (centres undefined) — recorded growth inhibition = -2.85

growth inhibition reported for this compound "CC(=O)OCc1ccc2ccccc2c1" : -14.7

// field: growth inhibition; key: "COC(=O)CC(=O)C=P(c1ccccc1)(c1ccccc1)c1ccccc1" ; value = -2.15

Briefly, growth inhibition measured for "c1ccc(N2CCCC2(c2ccccc2)c2ccccc2)cc1" : 28.4

Memo: O=C1CCCCC1O (centres undefined) , reported growth inhibition: -26.1

growth inhibition for "CC1=COC(=O)[C@@H]2[C@@H](C)CC[C@@H]12" is -4.2

Form: compound = "S=C1N(c2ccc(Br)cc2)C2=Nc3ccccc3SC(=C2N=Nc2ccccc2)N1c1ccc(Cl)cc1" ; growth inhibition = -3

Entry "Cn1c(=O)nc(N)n(NC(=O)CCl)c1=O" ; growth inhibition = 15.4

"Cn1nc(-c2ccccc2)c(C(=O)/C=C/c2ccccc2)c(N2CCCC2)c1=O" yielded growth inhibition of -19.2

What the record says about "C(=C\c1ccccn1)/c1ccc(/C=C/c2ccccn2)cc1" : growth inhibition is 13.7

The reported growth inhibition of the compound "CCN(CC)CCOC(=O)c1ccc(N=Nc2ccc(O)cc2)cc1" was -5.7

growth inhibition measured on "O=S(=O)(c1ccc(I)cc1)c1ccc(I)cc1" = 3.7

Note to self: growth inhibition recorded for "c1cncc(CSc2ncnc3nc[nH]c23)c1" was -10.5

growth inhibition recorded for this compound, O=C(CCl)OC1CCCCC1C1CCCCC1 (centres undefined) , is 39.6

"CCOc1ccccc1NC(=O)C(=O)Cc1nc2ccccc2s1" has a reported growth inhibition of 2.9

For CCN(CC)c1ccc2c(c1)C(O)c1ccccc1-2 (centres undefined) the compound record lists growth inhibition as 17.6

Please fill in: growth inhibition reported for "CCOC(=O)c1ccc(NC=O)cc1" = -24.1

Reported growth inhibition for O=S1(=O)NC2CCC3NS(=O)(=O)NC4CCC(N1)N4S(=O)(=O)N23 (centres undefined) was -8.25

Entry "CCCc1cc(-c2ccc(-c3cc(CCC)c(C=O)[nH]3)s2)[nH]c1C=O" , growth inhibition reported as -46.9

Per the record, "COc1ccc(OCC(=O)N2CCCCC2)cc1" has growth inhibition of -1.65

Just so you know, measured growth inhibition for CCCCCCCCCCCCOP(=O)(O)OP(=O)(O)OCC1OC(n2ccc(N)nc2=O)CC1O (centres undefined) came out at 18.2

Item: "COCn1c2ccc(OC(C)=O)cc2c2c(=O)oc(N(C)C)nc21" | growth inhibition: -11.7

Lookup result for CCOC(=O)C1CC(=O)N(Cc2ccccc2)C(=O)N1 (centres undefined) ; measured growth inhibition: -3.5

For "Cn1ncc2c(N)nc(NCCO)nc21" the compound record lists growth inhibition as -0.2

Query CCC(C)c1ccc(CCO)cc1 (centres undefined) yields growth inhibition of 4.45

response.value for "C[N+](C)(C)CCc1ccc2ccccc2c1" (field: growth inhibition) = 12.8

====

Can you tell me growth inhibition for the items I'm about to list?
assay: NCI Yeast Anticancer Drug Screen. Data for the cln2 rad14 strain (AID 165);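 further: 0% = growth equal to vehicle treated cultures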; settings: S. cerevisiae cln2 rad14 strain, at 50.0 µM, hits give high values
Compounds without any hit were thinned out: in the full panel of roughly 79,000, 15% have a hit.
Express the result in % but write the number alone.

Notebook: N/N=C1\C(=O)N(Cc2ccccc2)C(=O)C1C(=O)NCc1ccccc1 (stereo not drawn) , growth inhibition read as -36.8

GET /value?item= "CC(=O)OCCCC(CCCOC(C)=O)OC(C)=O" &field=growth inhibition returns -12.8

What the record says about CCN(CC)CCCC(C)Nc1cc(C)nc(Nc2nc3cc(Cl)c(Cl)cc3[nH]2)n1 (stereo not drawn) : growth inhibition is 56.2

The value of growth inhibition measured for the compound CC1OC(C)(c2ccccc2)OC1C (stereo not drawn) turned out to be -26.5

The compound identified as "O=S1(=O)C(c2ccccc2Cl)=C(O)C(O)=C1c1ccccc1Cl" registered its growth inhibition at 6

The compound listed as CCOC(=O)CCCCCC(C(=O)OCC)c1nc2ccccc2[nH]c1=O (stereo not drawn) shows growth inhibition equal to -5.1

Form field growth inhibition, entry O=C1CCC2(C=Nc3ccccc32)C2Cc3ccccc3N12 (stereo not drawn) : 3.75

Reported growth inhibition of "CCC(=O)/C=C/c1ccccc1" : -23.9

Please fill in: growth inhibition reported for "Cc1cc2nc3c(N)ccc(N)c3nc2cc1N" = -17.6

Per the records, this compound ( OC(CBr)c1cc(-c2ccccc2)nc2c(Cl)cc(Cl)cc12 (stereo not drawn) ) has growth inhibition equal to -16.7

Kindly note the recorded growth inhibition for CC(=N/Nc1ccc([N+](=O)[O-])cc1[N+](=O)[O-])/C(C)=C/C1C=CCCC1(C)C (stereo not drawn) , which is 3

Measured growth inhibition, CCC(C)C=O (stereo not drawn) : 2.2

// field: growth inhibition; key: "COc1ccc2c(C#N)cc3c4ccccc4ncc3c2c1" ; value = 19.1

Note to self: growth inhibition recorded for "N#CC(=NCCO)C1=C(O)c2ccccc2C1=O" was -30.6

GET /value?item= "COc1ccccc1NC(=S)N1CCC(CCCC2CCN(C(=S)Nc3ccccc3OC)CC2)CC1" &field=growth inhibition returns -11.8

// sample "CCSc1nnc(-c2ccccc2)nc1Cc1ccc(OC)cc1" , its growth inhibition was -12.8

Record "O=C(O)c1cc(Cl)ccc1-c1ccc(Cl)cc1C(=O)Nc1ccc2c(c1)Cc1cc(Cl)cc(Cl)c1-2" . Reported growth inhibition: 97.2

Just so you know, measured growth inhibition for COc1cc(CC2C(=O)OCC2C2(c3ccc4c(c3)OCO4)SCCCS2)cc(OC)c1OC (stereo not drawn) came out at 27.5

Record "N=C(N)n1ncc2c1CCC/C2=N/N=C(N)N" . Reported growth inhibition: 64.3

Record "O=C(O)CSc1ccn(Cc2ccccc2)c1" . Reported growth inhibition: -22.8

The recorded growth inhibition for "CCOc1ccc2c(c1)C(C)(C)CCC2(C)C" is -38.5

Notebook: "Nc1ncnc2c1ncn2[C@@H]1C[C@H]1CO" , growth inhibition read as 12.1

response.value for "Cn1c([N+](=O)[O-])cnc1CN1CCN(CCO)CC1" (field: growth inhibition) = 26.7

Please fill in: growth inhibition reported for "O=C(O)CCC(CCC(=O)O)(C(=O)O)C(=O)O" = -41

# growth inhibition of "Cc1c(NC=O)c(=O)n(-c2ccccc2)n1C" = 3.65

According to the records, this compound "COc1cc(OC)c(NC(=O)/C=C/c2ccccc2)cc1Cl" displays growth inhibition of -21.4

So for "OC(CC1=NCCS1)(c1ccccc1)c1ccccc1" , the logged growth inhibition turned out to be 98.1

Recorded growth inhibition (compound "O=c1c(Cl)cc(Cl)cn1S(=O)(=O)c1ccc([N+](=O)[O-])cc1" ): 98.7

get_value(item= "CC(=O)c1c(N)n(C)c(=O)n(C)c1=O" , readout=growth inhibition) returns -47.1

The value of growth inhibition measured for the compound NC(Cc1ccccc1)C(=O)Nc1cccnc1 (stereo not drawn) turned out to be -44.6

The compound COc1cccc2c1OC(=O)NC2O (stereo not drawn) showed growth inhibition equal to -13.5

Documented growth inhibition of "O=C(N/N=C\c1cccc2c([N+](=O)[O-])cccc12)Nc1ccccc1" : 2.6

growth inhibition reported for this compound [Cl][Pt+2][Cl].[NH-]C1CCC1[NH-] (stereo not drawn) : -24.4

So for O=C(Nc1ccc(Cl)cc1Cl)C(=O)C(C(=O)c1ccc2ccccc2c1)C1OC(=O)c2ccccc21 (stereo not drawn) , the logged growth inhibition turned out to be 15.9

// field: growth inhibition; key: "Nc1c(C(=O)Nc2ccc(S(N)(=O)=O)cc2)[n+]([O-])c2ccccc2[n+]1[O-]" ; value = 1

response.value for CC(C)COP(C)(=O)C(N)(C(F)(F)F)C(F)(F)F (stereo not drawn) (field: growth inhibition) = 25.8

Reported growth inhibition ( "Cc1ccc(S(=O)(=O)N/N=C/C(C)(C)C)cc1" ) = -19

Form field growth inhibition, entry "NC1=Nc2ncccc2C(=O)NN1" : 17.8

Hello, the source for this data is PubChem BioAssay (NCI), in case you need it.
